- TARGET_OR_SYSTEM: human MSR1 extracellular domain expressed with a N-terminal nonahistidine tag (His9-hMSR1; R&D Systems, Cat #2708-MS) (human) (UniProt P21757)
- Sequence (P21757 other isoform, or with tags, fused parts or gaps): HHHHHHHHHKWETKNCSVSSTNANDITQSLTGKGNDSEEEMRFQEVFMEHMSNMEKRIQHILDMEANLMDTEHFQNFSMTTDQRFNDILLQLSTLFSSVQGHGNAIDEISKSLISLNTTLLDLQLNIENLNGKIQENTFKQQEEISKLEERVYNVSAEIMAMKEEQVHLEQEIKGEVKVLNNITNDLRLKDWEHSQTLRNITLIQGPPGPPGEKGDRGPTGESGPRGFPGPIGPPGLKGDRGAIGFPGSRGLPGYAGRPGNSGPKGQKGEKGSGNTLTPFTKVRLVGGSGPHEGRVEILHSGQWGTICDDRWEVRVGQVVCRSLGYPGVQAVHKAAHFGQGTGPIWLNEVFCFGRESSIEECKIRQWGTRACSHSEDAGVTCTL
- PROTOCOL_TEXT: competition ELISA; 500 nM antibody, competitor 10 nM Ox-LDL, plate-coated His9-hMSR1
READOUT_NAME: % Blocking
Don't forget the unit after the value.

Here are 2 binders together with their reported answers.
Give me measured % Blocking, please, for this binder: H1H21227N-N297D (antibody, human IgG1, V domains shown) VH: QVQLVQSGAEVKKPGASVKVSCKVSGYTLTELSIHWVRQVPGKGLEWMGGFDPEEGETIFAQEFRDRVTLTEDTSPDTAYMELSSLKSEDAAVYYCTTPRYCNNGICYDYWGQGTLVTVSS VL: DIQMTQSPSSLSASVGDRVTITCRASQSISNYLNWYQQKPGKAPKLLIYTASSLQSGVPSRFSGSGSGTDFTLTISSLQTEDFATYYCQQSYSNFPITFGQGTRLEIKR
99%

Supply measured % Blocking of H1H21231N (antibody, human IgG1, V domains shown) VH: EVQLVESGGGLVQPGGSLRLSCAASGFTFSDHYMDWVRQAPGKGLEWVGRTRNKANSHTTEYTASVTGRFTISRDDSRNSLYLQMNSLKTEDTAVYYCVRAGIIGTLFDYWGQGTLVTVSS VL: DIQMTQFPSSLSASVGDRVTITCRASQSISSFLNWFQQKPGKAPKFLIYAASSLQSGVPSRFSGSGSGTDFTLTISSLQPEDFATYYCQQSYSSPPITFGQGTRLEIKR in your reply.
22%

Further cases:
Give recorded % Blocking. H1H21231N-N297Q (antibody, human IgG1, V domains shown) VH: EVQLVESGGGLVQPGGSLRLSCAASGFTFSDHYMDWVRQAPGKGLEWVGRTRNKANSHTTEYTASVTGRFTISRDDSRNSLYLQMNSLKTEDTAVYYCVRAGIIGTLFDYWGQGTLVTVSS VL: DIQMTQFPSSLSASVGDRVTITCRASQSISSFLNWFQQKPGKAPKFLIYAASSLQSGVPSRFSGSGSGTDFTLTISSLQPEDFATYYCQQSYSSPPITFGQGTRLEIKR
26%
